Target: Jak2 (UniProt O60674)
Sequence (O60674 whole entry, looked up): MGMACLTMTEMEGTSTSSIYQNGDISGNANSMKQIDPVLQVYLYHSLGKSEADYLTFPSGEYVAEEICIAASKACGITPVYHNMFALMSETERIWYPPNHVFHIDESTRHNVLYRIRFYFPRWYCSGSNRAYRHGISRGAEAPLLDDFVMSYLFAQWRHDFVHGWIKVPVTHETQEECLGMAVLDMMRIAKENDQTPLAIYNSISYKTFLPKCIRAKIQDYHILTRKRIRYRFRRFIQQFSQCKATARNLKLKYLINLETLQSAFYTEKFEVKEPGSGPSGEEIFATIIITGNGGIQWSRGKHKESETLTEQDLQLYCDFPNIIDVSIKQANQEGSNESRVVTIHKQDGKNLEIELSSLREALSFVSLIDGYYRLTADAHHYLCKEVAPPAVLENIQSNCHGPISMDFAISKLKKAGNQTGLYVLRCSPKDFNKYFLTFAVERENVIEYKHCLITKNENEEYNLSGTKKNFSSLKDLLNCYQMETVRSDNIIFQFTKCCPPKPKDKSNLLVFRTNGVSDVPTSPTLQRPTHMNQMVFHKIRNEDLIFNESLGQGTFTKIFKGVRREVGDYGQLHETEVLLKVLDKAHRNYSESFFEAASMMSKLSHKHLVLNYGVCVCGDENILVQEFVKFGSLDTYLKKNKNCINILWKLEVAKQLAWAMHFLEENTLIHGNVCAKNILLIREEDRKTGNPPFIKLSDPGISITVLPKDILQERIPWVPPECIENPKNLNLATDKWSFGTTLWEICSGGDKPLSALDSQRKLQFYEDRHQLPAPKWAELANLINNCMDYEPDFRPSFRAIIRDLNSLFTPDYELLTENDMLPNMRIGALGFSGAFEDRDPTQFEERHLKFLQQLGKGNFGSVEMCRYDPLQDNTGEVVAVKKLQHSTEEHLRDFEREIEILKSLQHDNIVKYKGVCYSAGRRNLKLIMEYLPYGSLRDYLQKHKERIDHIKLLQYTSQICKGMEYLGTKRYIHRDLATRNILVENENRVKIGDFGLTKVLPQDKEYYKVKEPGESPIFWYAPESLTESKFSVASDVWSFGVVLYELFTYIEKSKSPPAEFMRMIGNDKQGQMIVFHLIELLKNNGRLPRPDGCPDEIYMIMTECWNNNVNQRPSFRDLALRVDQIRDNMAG
Test: phosphorylation enrichment, bacterial display (enrichment ratio); higher = better substrate or ligand; peptides without Tyr show the background
Binary call on phosphorylation enrichment: 1.0 from 1 upward, 0.0 beneath that.

primary-sequence	answer-label
DKEKWYPLGTS [PIK3C2G_Y1438_N1442T]	0.0

phosphorylation enrichment >= 1 for TPGPNYRPGYN [USH2A_Y463] ?
0.0

phosphorylation enrichment >= 1 for RDEHGYISRCF [HSPB1_Y133_Q128R] ?
1.0

* * *

Target: EPHB2 (UniProt P29323)
Sequence (P29323 whole entry, looked up): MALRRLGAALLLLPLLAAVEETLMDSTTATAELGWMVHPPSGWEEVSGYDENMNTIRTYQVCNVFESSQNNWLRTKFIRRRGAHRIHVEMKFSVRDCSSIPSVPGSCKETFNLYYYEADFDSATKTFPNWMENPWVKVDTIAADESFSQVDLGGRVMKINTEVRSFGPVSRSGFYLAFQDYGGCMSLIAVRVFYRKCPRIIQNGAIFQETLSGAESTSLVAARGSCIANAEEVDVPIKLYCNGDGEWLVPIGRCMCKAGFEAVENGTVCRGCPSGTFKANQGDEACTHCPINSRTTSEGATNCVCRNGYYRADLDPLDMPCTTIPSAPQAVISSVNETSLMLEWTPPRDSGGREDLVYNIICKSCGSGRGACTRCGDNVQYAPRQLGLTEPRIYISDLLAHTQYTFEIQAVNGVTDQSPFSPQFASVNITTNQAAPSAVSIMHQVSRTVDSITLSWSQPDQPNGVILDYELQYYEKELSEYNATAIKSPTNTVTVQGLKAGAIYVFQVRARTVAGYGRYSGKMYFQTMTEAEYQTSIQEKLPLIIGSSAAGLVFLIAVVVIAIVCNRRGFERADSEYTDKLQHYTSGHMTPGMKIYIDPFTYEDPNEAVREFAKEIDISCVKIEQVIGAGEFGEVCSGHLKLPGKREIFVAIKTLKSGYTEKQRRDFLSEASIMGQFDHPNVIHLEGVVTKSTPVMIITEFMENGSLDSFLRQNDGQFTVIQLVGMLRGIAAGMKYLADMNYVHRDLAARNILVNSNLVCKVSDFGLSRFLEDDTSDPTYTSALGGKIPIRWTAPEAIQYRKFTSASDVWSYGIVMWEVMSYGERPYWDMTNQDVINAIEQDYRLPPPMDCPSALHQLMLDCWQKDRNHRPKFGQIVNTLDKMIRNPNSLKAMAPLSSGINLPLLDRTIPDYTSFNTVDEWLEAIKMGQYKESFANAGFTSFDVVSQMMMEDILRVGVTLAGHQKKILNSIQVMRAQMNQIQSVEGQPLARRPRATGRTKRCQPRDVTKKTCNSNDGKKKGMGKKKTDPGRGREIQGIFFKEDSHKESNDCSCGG
Assay: phosphorylation enrichment, bacterial display (enrichment ratio); higher = better substrate or ligand; peptides without Tyr show the background
Binary call on phosphorylation enrichment: 1 from 0.5 upward, 0 beneath that.

primary-sequence	answer-label
RRNEEYCLLAS [ITK_Y198_D202A]	1
GANSEYIIAEK [ECHS1_Y35_F33S]	1
VITTLYIGFLG [KCNQ1_Y267_L262V]	1
RSDEDYLYREE [POR_Y573]	1
LVMFIYVIFGM [SCN1A_Y1684_A1685V]	1

phosphorylation enrichment >= 0.5 for TFEFKYPEGSS [TGM4_Y440_YF] ?
1

phosphorylation enrichment >= 0.5 for GTFVIYVRFSG [FLNB_Y1687_G1691S_YF] ?
0

phosphorylation enrichment >= 0.5 for RVQKRYILDNV [RCN1_Y115_F117L] ?
0

phosphorylation enrichment >= 0.5 for PLDGEYFTRQI [TP53_Y327_L330R] ?
0

* * *

Target: SHP2-C SH2
Assay: SH2 binding enrichment of the phosphorylated peptide, bacterial display (enrichment ratio); higher = better substrate or ligand; peptides without Tyr show the background
Binary call on SH2 binding enrichment: T from 0.7 upward, F beneath that.

primary-sequence	answer-label
KILGRYFETSS [PAX2_Y72_G76S_YF]	T
QEGPEYWDQET [HLA-A_Y83]	F
IMNLLYHVVGW [GBA_Y412_T408M]	T
VHNLDYFKETT [FGFR3_Y647_K650E_YF]	F

SH2 binding enrichment >= 0.7 for ACCLLYCGDVV [TUBA4A_Y319_R320C] ?
F

SH2 binding enrichment >= 0.7 for LMVFEYMRHGD [NTRK1_Y591] ?
T

SH2 binding enrichment >= 0.7 for EKKKYYDAKIE [CASP5_Y104_T106A] ?
F

* * *

Biological target: FGFR3 (UniProt P22607)
Sequence (P22607 whole entry, looked up): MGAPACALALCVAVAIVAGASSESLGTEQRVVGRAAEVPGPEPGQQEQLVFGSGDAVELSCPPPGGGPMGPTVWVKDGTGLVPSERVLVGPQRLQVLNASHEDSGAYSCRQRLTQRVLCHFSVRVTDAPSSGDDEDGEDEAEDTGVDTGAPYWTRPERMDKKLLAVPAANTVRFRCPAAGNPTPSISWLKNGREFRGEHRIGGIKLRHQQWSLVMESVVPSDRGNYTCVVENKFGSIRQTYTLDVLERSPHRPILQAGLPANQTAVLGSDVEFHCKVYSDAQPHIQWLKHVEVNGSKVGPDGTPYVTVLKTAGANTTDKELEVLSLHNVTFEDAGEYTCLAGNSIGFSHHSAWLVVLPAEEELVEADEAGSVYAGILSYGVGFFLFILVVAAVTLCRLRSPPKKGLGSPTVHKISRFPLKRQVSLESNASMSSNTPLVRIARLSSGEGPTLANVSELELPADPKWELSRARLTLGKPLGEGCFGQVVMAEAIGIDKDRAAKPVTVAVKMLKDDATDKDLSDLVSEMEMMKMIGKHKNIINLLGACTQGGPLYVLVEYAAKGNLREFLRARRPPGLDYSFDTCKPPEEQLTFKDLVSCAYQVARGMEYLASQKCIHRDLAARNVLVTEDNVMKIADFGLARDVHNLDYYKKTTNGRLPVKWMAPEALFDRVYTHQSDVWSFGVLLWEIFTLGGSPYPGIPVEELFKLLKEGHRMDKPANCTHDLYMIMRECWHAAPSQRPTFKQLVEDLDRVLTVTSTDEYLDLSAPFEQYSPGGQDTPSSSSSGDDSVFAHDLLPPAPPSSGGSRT
Assay: phosphorylation enrichment, bacterial display (enrichment ratio); higher = better substrate or ligand; peptides without Tyr show the background
Below, each entry is listed alongside its reported phosphorylation enrichment.
Give only the figure.

I have this sequence here, VDGSVYELHPS [GCK_Y413_K414E] , and I need its recorded phosphorylation enrichment.
0.676

I have this sequence here, PHIKTYMRPSP [TDP1_Y497] , and I need its recorded phosphorylation enrichment.
0.547

* * *

Molecular target: MERTK (UniProt Q12866)
Sequence (Q12866 whole entry, looked up): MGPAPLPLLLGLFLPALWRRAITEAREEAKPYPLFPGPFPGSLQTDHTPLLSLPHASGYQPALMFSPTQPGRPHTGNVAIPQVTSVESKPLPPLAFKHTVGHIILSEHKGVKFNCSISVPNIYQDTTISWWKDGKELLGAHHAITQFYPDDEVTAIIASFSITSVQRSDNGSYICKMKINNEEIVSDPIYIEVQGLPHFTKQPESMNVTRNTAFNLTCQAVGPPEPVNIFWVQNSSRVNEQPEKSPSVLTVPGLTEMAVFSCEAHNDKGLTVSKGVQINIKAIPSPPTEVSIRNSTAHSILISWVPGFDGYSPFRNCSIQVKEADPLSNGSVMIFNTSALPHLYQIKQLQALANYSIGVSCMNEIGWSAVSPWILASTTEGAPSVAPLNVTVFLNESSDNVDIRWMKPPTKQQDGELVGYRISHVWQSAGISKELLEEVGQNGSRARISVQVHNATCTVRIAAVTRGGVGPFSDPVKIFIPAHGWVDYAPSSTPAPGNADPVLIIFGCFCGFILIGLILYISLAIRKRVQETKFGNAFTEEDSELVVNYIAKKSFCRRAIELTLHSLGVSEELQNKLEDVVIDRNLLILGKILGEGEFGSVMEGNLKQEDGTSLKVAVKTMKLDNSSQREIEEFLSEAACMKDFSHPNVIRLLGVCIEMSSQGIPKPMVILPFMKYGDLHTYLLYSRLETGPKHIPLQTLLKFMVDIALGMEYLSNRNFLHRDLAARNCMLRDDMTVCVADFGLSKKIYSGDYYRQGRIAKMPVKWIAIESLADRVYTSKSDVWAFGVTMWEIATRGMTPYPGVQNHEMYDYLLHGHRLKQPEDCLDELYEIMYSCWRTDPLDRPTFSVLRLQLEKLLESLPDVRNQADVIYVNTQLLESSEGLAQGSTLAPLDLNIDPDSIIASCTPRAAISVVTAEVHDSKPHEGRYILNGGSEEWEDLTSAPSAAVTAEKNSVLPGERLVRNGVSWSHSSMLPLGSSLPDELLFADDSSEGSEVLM
Assay: phosphorylation enrichment, bacterial display (enrichment ratio); higher = better substrate or ligand; peptides without Tyr show the background
Records here are stratified by phosphorylation enrichment; strata: low-valued: < 0.4; mid-valued: ≥ 0.4 and < 0.5; high-valued: ≥ 0.5

Previously resolved entries follow.
primary-sequence	answer-label
TIQIMYGCDVG [HLA-A_Y123]	mid-valued
GVPLGYPIKAP [ELN_Y206]	mid-valued
DRLASYLDKLR [KRT12_Y139_V143L]	mid-valued
VFAPDYIAGVS [NOB1_Y366]	high-valued

Class (by measured phosphorylation enrichment) for FEREQYADRAR [RBM4_Y355_YF]
low-valued

* * *

Below, each entry is listed alongside its reported SH2 binding enrichment.
Target: Grb2 SH2 (UniProt P62993)
Sequence (P62993 whole entry, looked up): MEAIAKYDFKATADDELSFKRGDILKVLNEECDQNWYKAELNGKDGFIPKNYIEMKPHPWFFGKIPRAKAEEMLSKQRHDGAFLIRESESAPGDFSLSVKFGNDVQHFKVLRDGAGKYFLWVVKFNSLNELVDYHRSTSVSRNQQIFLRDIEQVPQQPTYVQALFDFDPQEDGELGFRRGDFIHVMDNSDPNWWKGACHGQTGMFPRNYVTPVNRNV
Test: SH2 binding enrichment of the phosphorylated peptide, bacterial display (enrichment ratio); higher = better substrate or ligand; peptides without Tyr show the background
Give only the figure.

Known SH2 binding enrichment results, listed for orientation:
primary-sequence	reported-value
SVCPDYDLCSI [SQSTM1_Y148_V153I]	0.968
DEGVNYFMSKG [FBXO8_Y156]	0.674
ESDYTYSSSYE [SRPK2_Y427]	0.829
PKEQKYSFLQN [GH1_Y68]	0.909
DTMQTYNGNDE [TSPAN7_Y131_A127T]	0.874

I have this sequence here, PSALGYSPSLH [LLGL2_Y40_R45H] , and I need its recorded SH2 binding enrichment.
0.827

I have this sequence here, APAHKYHGGGG [HBD_Y146_L142P] , and I need its recorded SH2 binding enrichment.
0.709

I have this sequence here, FADPFYDFEIE [ZC3H18_Y372_YF] , and I need its recorded SH2 binding enrichment.
1.42

I have this sequence here, GKSFIYAAFHA [KCNT1_Y563_T562I] , and I need its recorded SH2 binding enrichment.
0.893

I have this sequence here, GIVEDYRPPLY [ACVRL1_Y421_F425L] , and I need its recorded SH2 binding enrichment.
0.859

I have this sequence here, TISPYYCQSLF [CRYAA_Y48_R49C] , and I need its recorded SH2 binding enrichment.
0.867

* * *

Target: Grb2 SH2 (UniProt P62993)
Experiment: SH2 binding enrichment of the phosphorylated peptide, bacterial display (enrichment ratio); higher = better substrate or ligand; peptides without Tyr show the background
Binary call on SH2 binding enrichment: Condition met from 0.8 upward, Condition not met beneath that.

primary-sequence	answer-label
KMKGDYYRYLA [YWHAG_Y130]	Condition met
VRVQLYDPDFM [CYP4A22_Y100_Y104F]	Condition met
YTGDIYSNSNL [LZTR1_Y141]	Condition not met
YQRITYHNWRH [PDE6B_Y556_R552Q]	Condition met

SH2 binding enrichment >= 0.8 for IIGNGYFFHVF [MYBPC3_Y1135_R1138H_YF] ?
Condition met

SH2 binding enrichment >= 0.8 for VGEGPYLLSDL [ABCC12_Y7_I9L] ?
Condition not met

SH2 binding enrichment >= 0.8 for EDSEYYKAFEE [CASQ2_Y179] ?
Condition met

SH2 binding enrichment >= 0.8 for GSESDYIVMPN [SCARB1_Y133] ?
Condition met

SH2 binding enrichment >= 0.8 for QNTVDYYDLYG [PTPN11_Y62_G60V] ?
Condition met

SH2 binding enrichment >= 0.8 for SIKDKYVTAFF [KCNH2_Y611_L615F_YF] ?
Condition met

* * *

System: c-Abl (mouse)
Assay: phosphorylation enrichment, bacterial display (enrichment ratio); higher = better substrate or ligand; peptides without Tyr show the background
Binary call on phosphorylation enrichment: Yes from 0.8 upward, No beneath that.

phosphorylation enrichment >= 0.8 for QEEPEYWDQET [HLA-A_Y83_G80E] ?
Yes

phosphorylation enrichment >= 0.8 for ARTNEYKIIRT [INA_Y87] ?
Yes

phosphorylation enrichment >= 0.8 for LLSISYVGCSL [ADGRD1_Y571_S567L] ?
Yes

phosphorylation enrichment >= 0.8 for QDLLLYQTHSE [PKHD1_Y255_F253L] ?
Yes

phosphorylation enrichment >= 0.8 for MPLDQYSPSFP [FGFR1_Y776] ?
No

phosphorylation enrichment >= 0.8 for CDDGKYVFVVT [RPS6KA3_Y488_Y483C_YF] ?
Yes

phosphorylation enrichment >= 0.8 for KLIMEYLPYGS [JAK2_Y931] ?
No

phosphorylation enrichment >= 0.8 for LVMFIYVIFGM [SCN1A_Y1684_A1685V] ?
No

phosphorylation enrichment >= 0.8 for TQFWLYFAGNL [SLC25A5_Y112] ?
Yes

* * *

Target: FGFR1 (UniProt P11362)
Sequence (P11362 whole entry, looked up): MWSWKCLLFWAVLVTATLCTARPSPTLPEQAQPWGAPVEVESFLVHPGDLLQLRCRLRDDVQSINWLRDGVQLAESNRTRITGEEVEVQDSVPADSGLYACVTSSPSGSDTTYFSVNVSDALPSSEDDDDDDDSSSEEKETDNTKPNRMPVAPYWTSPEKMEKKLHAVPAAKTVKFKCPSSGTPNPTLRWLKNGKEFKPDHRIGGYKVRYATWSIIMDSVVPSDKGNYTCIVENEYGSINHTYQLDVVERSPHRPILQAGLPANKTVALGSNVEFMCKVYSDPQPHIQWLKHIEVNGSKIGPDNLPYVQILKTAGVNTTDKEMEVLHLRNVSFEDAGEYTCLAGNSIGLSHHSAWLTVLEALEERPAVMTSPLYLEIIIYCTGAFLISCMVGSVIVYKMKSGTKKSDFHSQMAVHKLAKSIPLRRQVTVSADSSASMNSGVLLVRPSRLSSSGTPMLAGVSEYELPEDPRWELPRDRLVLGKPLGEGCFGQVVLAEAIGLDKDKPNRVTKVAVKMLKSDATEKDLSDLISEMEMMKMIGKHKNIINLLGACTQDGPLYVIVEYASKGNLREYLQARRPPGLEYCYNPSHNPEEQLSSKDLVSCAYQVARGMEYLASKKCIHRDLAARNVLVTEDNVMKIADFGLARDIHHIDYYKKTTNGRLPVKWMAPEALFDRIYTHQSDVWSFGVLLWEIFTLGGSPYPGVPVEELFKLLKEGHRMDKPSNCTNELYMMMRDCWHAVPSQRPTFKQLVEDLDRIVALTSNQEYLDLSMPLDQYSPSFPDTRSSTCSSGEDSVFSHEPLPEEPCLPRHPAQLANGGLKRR
Experiment: phosphorylation enrichment, bacterial display (enrichment ratio); higher = better substrate or ligand; peptides without Tyr show the background
Binary call on phosphorylation enrichment: true from 0.5 upward, false beneath that.

Previously resolved entries follow.
primary-sequence	answer-label
MDDDQYALLTT [EFCAB6_Y675]	true
TVLWWYTGTRP [UGT1A1_Y337_R336W]	false
PFRFIYMAVQH [PTPN11_Y515_Q510P_YF]	false
KSVVTYSPTTG [ITGB3BP_Y32_I30V]	false
ARGTRYRYVSQ [UCN3_Y95]	false

phosphorylation enrichment >= 0.5 for KDFETYQPFQN [CTNND2_Y1157_YF] ?
true

phosphorylation enrichment >= 0.5 for YEPDAYDDLDQ [ELP5_Y302] ?
true

phosphorylation enrichment >= 0.5 for VDGSVYELHPS [GCK_Y413_K414E] ?
true

phosphorylation enrichment >= 0.5 for EEKKKYFDTKI [CASP5_Y103_YF] ?
false

phosphorylation enrichment >= 0.5 for GRPLFYWLTGC [LYZL6_Y140] ?
true

phosphorylation enrichment >= 0.5 for RGKDSYETSKL [SPP1_Y225_Q229K] ?
true

phosphorylation enrichment >= 0.5 for YCRITYDIFPF [INTS13_Y67_M66T] ?
true

phosphorylation enrichment >= 0.5 for RNFGTYTAGLS [RHBDD1_Y264_D262G_YF] ?
false

* * *

Below, each entry is listed alongside its reported phosphorylation enrichment.
Test system: Fer (mouse)
Experiment: phosphorylation enrichment, bacterial display (enrichment ratio); higher = better substrate or ligand; peptides without Tyr show the background
Give only the figure.

Known phosphorylation enrichment results, listed for orientation:
primary-sequence	system	phosphorylation enrichment
DPFHVYIKNHV [KCNE3_Y95_R99H_YF]	Fer (mouse)	0.585
HKANEYFPVVI [ADAMTS18_Y764_L769I_YF]	Fer (mouse)	0.874

I have this sequence here, LEQDEYALHSH [HADHB_Y244_R247H] , and I need its recorded phosphorylation enrichment.
0.642

I have this sequence here, ACEVLYNIVFM [NCF2_Y125_A128V] , and I need its recorded phosphorylation enrichment.
8.66

I have this sequence here, HKLSFYEFDFE [BTK_Y40_YF] , and I need its recorded phosphorylation enrichment.
0.919

I have this sequence here, AKAEIYEMRPL [COX10_Y97] , and I need its recorded phosphorylation enrichment.
6.76

I have this sequence here, YGGRDYSLDEF [MYOF_Y1705] , and I need its recorded phosphorylation enrichment.
0.618

I have this sequence here, VVLVSYVPFSQ [SH2B1_Y624_S627F] , and I need its recorded phosphorylation enrichment.
0.501

I have this sequence here, DIDKIYVRTGI [PIK3CA_Y355] , and I need its recorded phosphorylation enrichment.
0.525
